- TEST_DESCRIPTION: Tenofovir concentration in brain after i.v. tenofovir-loaded vesicles (HPLC-UV of brain homogenate)
- Format: in vivo, mice
- MEASUREMENT_CONDITIONS: mouse, brain, 7.5 mg/kg; mice, encapsulated tenofovir in vesicles, 15 min after IV injection; read-out: amount of tenofovir in brain
REPORTED_ENDPOINT: concentration at 15 min

Query string: Suppose we examine the compound C[C@H](Cn1cnc2c(N)ncnc21)OCP(=O)(O)O ; what concentration at 15 min value has been reported?
Result string: 6200 ng/g

###

- TEST_DESCRIPTION: Pharmacokinetic studies, second set (LC-MS, brain)
- Type: in vivo
- MEASUREMENT_CONDITIONS: mouse, brain, intravenous; 7.5 mg/kg encapsulated in optimized V-Smart vesicles, pyrido pretreated mice; after 15 min; read-out: concentration of tenofovir in the brain
- Protocol: Another group of mice were injected with free tenofovir. The total dose of tenofovir that was injected to the mice that received encapsulated tenofovir was […], out of which 7.5 mg/kg was encapsulated tenofovir. The total dose of tenofovir that was injected to the mice that received free tenofovir was 75 mg/kg. All animals were pretreated with 0.5 mg/kg pyrido. Results are mean of 5 mice±SD. […]
REPORTED_ENDPOINT: concentration at 15 min

Query string: Suppose we examine the molecule C[C@H](Cn1cnc2c(N)ncnc21)OCP(=O)(O)O ; what concentration at 15 min value has been reported?
Result string: > 6000 ng/g
